Origin of measurements: patent US20220195015A1

study_target: SARS-CoV-2 spike receptor binding domain (RBD), wild type (SARS-CoV-2, UniProt P0DTC2 319-539)
protocol_text: ELISA on coated RBD protein
endpoint: log10 EC50 (log10 of the value in µg/mL)
All values: base-10 log of EC50 in µg/mL.

Solved entries:
binder	log10 EC50
C704 (antibody, V domains shown) VH: VQLVESGGGVVQPGRSLRLSCAASGFTFSRYGMHWVRQAPGKGLEWVAVSSYDGSNEYYANSVKGRFTISRDNSKNTLYLQMNSLRAEDTAVYYCAKTGASYCGGDCPFHFDYWGQGTLVTVSS VL: IRMTQSPSSLSASVGDRVTITCQASQDINNYLNWYQQKPGKAPKLLIYDASDLETGVPSRFSGGGSGTDFTFTISSLQPEDIATYYCQHYNNLPITFGQGTRLEIK	-1.87
C708 (antibody, V domains shown) VH: EVQLVESGGGLVQPGGSLRLSCAASGFSFSTYWMSWVRQAPGKGLEWVADIKQDGSEKYFVDSVKGRFTISRDNAKNSLYLHLNSLRAEDTAVYYCAREMAGSGNYYWFGYGMDVWGQGTTVTVSS VL: IRMTQSPSSVSASVGDRVTITCRASQGISSWLAWYQQKPGKAPKLLIYAASSLQSGVPSRFSGSESGTDFTLTISSLQPEDFATYYCQQANSFPLTFGGGTKVEIK	-0.89
C144 (antibody, V domains shown) VH: EVQLVESGGGLIQPGGSLRLSCAASGFTVSNNYMSWVRQAPGKGLEWVSVIYSGGSTYYADSVKGRFTISRDKSKNTLYLQMNRLRAEDTAVYYCAREGEVEGYNDFWSGYSRDRYYFDYWGQGTLVTVSS VL: QSALTQPASVSGSPGQSITISCTGTSSDVGGYNYVSWYQQHPGKAPKLMIYDVSNRPSGVSNRFSGSKSGNTASLTISGLQAEDEADYYCSSYTSSSTRVFGTGTKVTVL	-2.74
C047 (antibody, V domains shown) VH: QVQLQESGPGLVKPSETLSLTCTVSGGSISSTTYYWDWIRQSPGKGLEWIGSIFYTGITYYSPSLKSRVTISVDTSKNQFSLRLNSMTAADTAVYYCARRLRQLWFGPWFDPWGQGTLVTVSS VL: QSALTQPPSASGSPGQSVTISCTGTRSDVGDYNYVSWYQQHPDKAPKLIIYEVTKRPSGVPDRFSGSKSGNTASLTVSGLQAEDEADYYCSSYAGSNNVMFGGGTKLTVL	-1.95

In: # return recorded log10 EC50 for entry C097 (antibody, V domains shown) VH: QVQLQESGPGLVKPSQTLSLTCTVSGGSISSGPYYWSWIRQHPGKGLEWIGYIYYSGSTYYNPSLKSRVTISVDTSKKQFSLNLNSVTAADTAVYYCARVWQYYDSTGSFDYWGQGTLVTVSS VL: DIVMTQSPLSLPVTPGEPASISCRSSRGLLHSNGYNYLDWYLQKPGQSPQLLIYLGSNRASGVPDRFSGSGSVTDFTLNISRVEAEDVGVYYCMQALQTPFTFGPGTKVDIK
Out: -2.46
